Hi there, I'd appreciate the recorded folding stability dG for every entry that follows.
B1: r11_951_TrROS_Hall (parent)
chain: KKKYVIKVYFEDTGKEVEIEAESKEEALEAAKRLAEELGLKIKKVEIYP

- Variants of: B1
- Measurement description: folding stability dG (cDNA display proteolysis); higher = more stable
- Run parameters: PBS, room temperature
Answer in kJ/mol, number only, no unit symbol.

Which folding stability dG is listed for KKKYVIKVYQEDTGKEVEIEAESKEEALEAAKRLAEELGLKIKKVEIYP [F10Q] ?
9.31

Using the record for KKKYVIKVYFEDTGKEVEIEAESKEEALEAAKELAEELGLKIKKVEIYP [R33E] , report its folding stability dG.
16.9

What folding stability dG value was documented for this variant, KKKYVIKVYFEDTGKEVEIEAESKEEALEAAKRLAEELGLKIKKIEIYP [V45I] ?
16.6

folding stability dG lookup needed for KKKYVIKVYFEDTGKEVEIEAESKEEALEAAKRLAEELGLKIPKVEIYP [K43P] , thanks.
12.3

folding stability dG for KKKYVIKKYFEDTGKEVEIEAESKEEALEAAKRLAEELGLKIKKVEIYP [V8K] ?
0.669

Please report the recorded folding stability dG for KKKYVAKVYFEDTGKEVEIEAESKEEALEAAKRLAEELGLKIKKVEIYP [I6A] .
17.3

// folding stability dG lookup, key: KKKYVIKVYFEDTGKEVEIEAESKEEALEAAKRLAEELGLEIKKVEIYP [K41E]
17.4

Name the recorded folding stability dG for KKKYVIKVYFEDTGKEVEIEAESKEEALEAAKRLAQELGLKIKKVEIYP [E36Q] .
19.5

# folding stability dG lookup, item KKKYVIKVYFEDTGKEVEIEAESKAEALEAAKRLAEELGLKIKKVEIYP [E25A]
18.4

State the recorded folding stability dG for this entry: KKKYVIKVYFEDTGKEVEIEASSKEEALEAAKRLAEELGLKIKKVEIYP [E22S]
17.8

Would you kindly share the measured folding stability dG for KKKYVIKVYFETTGKEVEIEAESKEEALEAAKRLAEELGLKIKKVEIYP [D12T] ?
18.8

Would you mind telling me what folding stability dG value was observed for KKKYVIKVYFEDTGKELEIEAESKEEALEAAKRLAEELGLKIKKVEIYP [V17L] ?
18.5

Requested field: folding stability dG. Item: KKKYVIKVYFEDTGKEVEIEAESKEEAHEAAKRLAEELGLKIKKVEIYP [L28H]
18.6

For the variant shown here, WKKYVIKVYFEDTGKEVEIEAESKEEALEAAKRLAEELGLKIKKVEIYP [K1W] , give the reported folding stability dG.
18.3

What folding stability dG value was documented for this variant, KKKYVIKIYFEDTGKEVEIEAESKEEALEAAKRLAEELGLKIKKVEIYP [V8I] ?
18.7

Can you share its folding stability dG? I mean this variant: KKKYVIKVYFEDTGKEVYIEAESKEEALEAAKRLAEELGLKIKKVEIYP [E18Y]
17.2

# get_value(readout='folding stability dG', item= KKKYDIKVYFEDTGKEVEIEAESKEEALEAAKRLAEELGLKIKKVEIYP [V5D] )
12.6

# input variant: KKKYVIKVYFEDTGKEVEIEAMSKEEALEAAKRLAEELGLKIKKVEIYP [E22M] ; wanted: its folding stability dG
17

Value lookup for folding stability dG; key = KKKYVIKSYFEDTGKEVEIEAESKEEALEAAKRLAEELGLKIKKVEIYP [V8S]
7.81

Quick check: folding stability dG of KKKYVIKVYFEDTGKEVEIEAESKLEALEAAKRLAEELGLKIKKVEIYP [E25L] ?
17.5

Report folding stability dG for KKKYVIKVYFEDTGKEVEIEAESKEEALEAAKKLAEELGLKIKKVEIYP [R33K] please.
18.4

Using the record for KKKYVIKVYDEDTGKEVEIEAESKEEALEAAKRLAEELGLKIKKVEIYP [F10D] , report its folding stability dG.
12

Item KKKYVIKVYFEDTGKEVEIEAESKEEALEAAKRLAEELGLKIKKVEIYE [P49E] has what recorded folding stability dG?
19.5

Which folding stability dG is listed for KKKYVIKVYFEDTGKEVEIEAESKEEALEAAKRLAEELGLKIKCVEIYP [K44C] ?
17.2

Any idea what folding stability dG was measured for KKKYVIKVYFEDTGKEVEIEAASKEEALEAAKRLAEELGLKIKKVEIYP [E22A] ?
18.2

Fill in the blank: the reported folding stability dG of KKKYVIKVYFEDTGKEVEIEAESKEEALEAAKRLAEEYGLKIKKVEIYP [L38Y] is ____.
18.9

Request the reported folding stability dG associated with KKKYVIKVYFEDTGKEVEIEAESKEEALEAAKRLAEELGVKIKKVEIYP [L40V]
17.1

These data points were gathered from the MegaScale stability set (Tsuboyama et al. 2023).
